- PROTOCOL_SUMMARY: solubility of branaplam in selected excipients
- Format: physicochemical
- EXPERIMENTAL_CONDITIONS: aqueous excipient stock solution, 2 °C, pH 4, aqueous with cosolvent or surfactant or cyclodextrin, thermodynamic from solid, in PEG 300 5.0% (w/v), pH 4.0 buffer, 2-8° C.; read-out: Solubility (mg/mL) 2-8° C.
QUANTITY: solubility at 24 h (mg/mL)

INSERT INTO assay_data (molecule, quantity, recorded_result) VALUES
  ('CC1(C)CC(Oc2ccc(-c3ccc(-c4cn[nH]c4)cc3O)nn2)CC(C)(C)N1 [branaplam]', 'solubility at 24 h', 0.27);

----------
- PROTOCOL_SUMMARY: solubility of branaplam in selected excipients
- Assay type: physicochemical
- EXPERIMENTAL_CONDITIONS: aqueous excipient stock solution, 25 °C, pH 4, aqueous with cosolvent or surfactant or cyclodextrin, thermodynamic from solid, in Tween 80 1.5% (w/v), pH 4.0 buffer, RT; read-out: Solubility (mg/mL) RT
QUANTITY: solubility at 24 h (mg/mL)

INSERT INTO measurements (molecule, quantity, recorded_result) VALUES
  ('CC1(C)CC(Oc2ccc(-c3ccc(-c4cn[nH]c4)cc3O)nn2)CC(C)(C)N1 [branaplam]', 'solubility at 24 h', 0.41);

----------
- PROTOCOL_SUMMARY: solubility of branaplam in selected excipients
- Type: physicochemical
- EXPERIMENTAL_CONDITIONS: aqueous excipient solution, 2 °C, pH 4, aqueous with cosolvent or surfactant or cyclodextrin, thermodynamic from solid, in PEG 300 5.0% (w/w), 2-8° C.; read-out: Solubility (mg/mL) 2-8° C.
QUANTITY: solubility at 24 h (mg/mL)

INSERT INTO results (molecule, quantity, recorded_result) VALUES
  ('CC1(C)CC(Oc2ccc(-c3ccc(-c4cn[nH]c4)cc3O)nn2)CC(C)(C)N1 [branaplam]', 'solubility at 24 h', 0.27);

----------
- PROTOCOL_SUMMARY: solubility of branaplam in selected excipients
- Format: physicochemical
- EXPERIMENTAL_CONDITIONS: aqueous excipient solution, 25 °C, pH 4, aqueous with cosolvent or surfactant or cyclodextrin, thermodynamic from solid, in Propylene glycol 10.0% (w/w), RT; read-out: Solubility (mg/mL) RT
QUANTITY: solubility at 24 h (mg/mL)

INSERT INTO assay_data (given_smiles, quantity, recorded_result) VALUES
  ('CC1(C)CC(Oc2ccc(-c3ccc(-c4cn[nH]c4)cc3O)nn2)CC(C)(C)N1', 'solubility at 24 h', 0.37);

----------
- PROTOCOL_SUMMARY: solubility of branaplam in selected excipients
- Format: physicochemical
- EXPERIMENTAL_CONDITIONS: aqueous excipient stock solution, 25 °C, pH 4, aqueous with cosolvent or surfactant or cyclodextrin, thermodynamic from solid, in Propylene glycol 5.0% (w/v), pH 4.0 buffer, RT; read-out: Solubility (mg/mL) RT
QUANTITY: solubility at 24 h (mg/mL)

INSERT INTO results (given_smiles, quantity, recorded_result) VALUES
  ('CC1(C)CC(Oc2ccc(-c3ccc(-c4cn[nH]c4)cc3O)nn2)CC(C)(C)N1', 'solubility at 24 h', 0.27);

----------
- PROTOCOL_SUMMARY: solubility of branaplam in selected excipients
- Format: physicochemical
- EXPERIMENTAL_CONDITIONS: aqueous excipient stock solution, 2 °C, pH 4, aqueous with cosolvent or surfactant or cyclodextrin, thermodynamic from solid, in Glycerol 25.0% (w/w), 2-8° C.; read-out: Solubility (mg/mL) 2-8° C.
QUANTITY: solubility at 24 h (mg/mL)

INSERT INTO assay_data (given_smiles, recorded_result) VALUES
  ('CC1(C)CC(Oc2ccc(-c3ccc(-c4cn[nH]c4)cc3O)nn2)CC(C)(C)N1', 0.37);

----------
- PROTOCOL_SUMMARY: solubility of branaplam in selected excipients
- Type: physicochemical
- EXPERIMENTAL_CONDITIONS: aqueous excipient solution, 25 °C, pH 4, aqueous with cosolvent or surfactant or cyclodextrin, thermodynamic from solid, in PEG 300 5.0% (w/w), RT; read-out: Solubility (mg/mL) RT
- Procedure: Solubility of branaplam was evaluated in excipients, other than cyclodextrin, such as Cremophor RH40, Tween 80, PG, PEG300, and glycerol. These excipients and concentrations were selected as they are suitable for paediatric formulations. […] Solubility of branaplam was evaluated in excipients, other than cyclodextrin, such as Cremophor RH40, Tween 80, PG, PEG300, and glycerol. […]
QUANTITY: solubility at 24 h

INSERT INTO measurements (given_smiles, recorded_result) VALUES
  ('CC1(C)CC(Oc2ccc(-c3ccc(-c4cn[nH]c4)cc3O)nn2)CC(C)(C)N1', '0.39 mg/mL');

----------
- PROTOCOL_SUMMARY: solubility of branaplam in selected excipients
- Type: physicochemical
- EXPERIMENTAL_CONDITIONS: aqueous excipient solution, 2 °C, pH 4, aqueous with cosolvent or surfactant or cyclodextrin, thermodynamic from solid, in Propylene glycol 25.0% (w/w), 2-8° C.; read-out: Solubility (mg/mL) 2-8° C.
QUANTITY: solubility at 24 h (mg/mL)

INSERT INTO assay_data (given_smiles, units_symbol, recorded_result) VALUES
  ('CC1(C)CC(Oc2ccc(-c3ccc(-c4cn[nH]c4)cc3O)nn2)CC(C)(C)N1', 'mg/mL', 0.42);

----------
- PROTOCOL_SUMMARY: solubility of branaplam in selected excipients
- Format: physicochemical
- EXPERIMENTAL_CONDITIONS: aqueous excipient solution, 2 °C, pH 4, aqueous with cosolvent or surfactant or cyclodextrin, thermodynamic from solid, in Tween 80 5.0% (w/w), 2-8° C.; read-out: Solubility (mg/mL) 2-8° C.
QUANTITY: solubility at 24 h (mg/mL)

INSERT INTO measurements (given_smiles, recorded_result) VALUES
  ('CC1(C)CC(Oc2ccc(-c3ccc(-c4cn[nH]c4)cc3O)nn2)CC(C)(C)N1', 0.73);

----------
- PROTOCOL_SUMMARY: solubility in pH 6.8 and biorelevant media (FeSSIF V2, FaSSIF V2)
- EXPERIMENTAL_CONDITIONS: FaSSIF V2, fassif
QUANTITY: solubility (mg/mL)

INSERT INTO assay_data (compound, quantity, recorded_result) VALUES
  ('CC1(C)CC(Oc2ccc(-c3ccc(-c4cn[nH]c4)cc3O)nn2)CC(C)(C)N1.Cl [Branaplam hydrochloride salt]', 'solubility', 0.02);

----------
- PROTOCOL_SUMMARY: solubility of branaplam in selected excipients
- Assay type: physicochemical
- EXPERIMENTAL_CONDITIONS: aqueous excipient stock solution, 25 °C, pH 4, aqueous with cosolvent or surfactant or cyclodextrin, thermodynamic from solid, in Cremophor RH 40 1.0% (w/w), RT; read-out: Solubility (mg/mL) RT
QUANTITY: solubility at 24 h (mg/mL)

INSERT INTO measurements (given_smiles, quantity, units_symbol, recorded_result) VALUES
  ('CC1(C)CC(Oc2ccc(-c3ccc(-c4cn[nH]c4)cc3O)nn2)CC(C)(C)N1', 'solubility at 24 h', 'mg/mL', 0.28);

----------
- PROTOCOL_SUMMARY: solubility in pH 6.8 and biorelevant media (FeSSIF V2, FaSSIF V2)
- EXPERIMENTAL_CONDITIONS: pH 6.8, aqueous buffer
QUANTITY: solubility (µg/mL)

INSERT INTO results (compound, quantity, recorded_result) VALUES
  ('CC1(C)CC(Oc2ccc(-c3ccc(-c4cn[nH]c4)cc3O)nn2)CC(C)(C)N1.Cl [Branaplam hydrochloride salt]', 'solubility', 4);

----------
- PROTOCOL_SUMMARY: solubility of branaplam in selected excipients
- Assay type: physicochemical
- EXPERIMENTAL_CONDITIONS: Cremophor RH 40 3.5% (w/v) aqueous solution in pH 4.0 buffer, 25 °C, pH 4, aqueous with cosolvent or surfactant or cyclodextrin, thermodynamic from solid, in Cremophor RH 40 3.5% (w/v), pH 4.0 buffer, RT; read-out: Solubility (mg/mL) RT
QUANTITY: solubility at 24 h (mg/mL)

INSERT INTO results (compound, units_symbol, recorded_result) VALUES
  ('CC1(C)CC(Oc2ccc(-c3ccc(-c4cn[nH]c4)cc3O)nn2)CC(C)(C)N1 [branaplam]', 'mg/mL', 0.53);

----------
- PROTOCOL_SUMMARY: measured log P of branaplam
- Type: physicochemical
QUANTITY: logP

INSERT INTO measurements (given_smiles, recorded_result) VALUES
  ('CC1(C)CC(Oc2ccc(-c3ccc(-c4cn[nH]c4)cc3O)nn2)CC(C)(C)N1', 2.6);

----------
- PROTOCOL_SUMMARY: solubility of branaplam in selected excipients
- Format: physicochemical
- EXPERIMENTAL_CONDITIONS: aqueous excipient stock solution, 2 °C, pH 4, aqueous with cosolvent or surfactant or cyclodextrin, thermodynamic from solid, in PEG 400 25.0% (w/v), pH 4.0 buffer, 2-8° C.; read-out: Solubility (mg/mL) 2-8° C.
QUANTITY: solubility at 24 h

INSERT INTO results (given_smiles, quantity, recorded_result) VALUES
  ('CC1(C)CC(Oc2ccc(-c3ccc(-c4cn[nH]c4)cc3O)nn2)CC(C)(C)N1', 'solubility at 24 h', '0.93 mg/mL');

These entries and their values trace back to patent US20220071996A1.
